assay: Pharmacokinetics of capsules in male SD rats; conditions: male, SD, rat, plasma, po, 2 mg/kg, AUClast, Mean, capsule, mean of two male SD rats
endpoint.label: AUC(0-t) (ng·h/mL)
Just the number in ng·h/mL, nothing appended.

The recorded AUC(0-t) for Nc1ncn([C@H]2C[C@H](O)[C@@H](CO)S2)c(=O)n1 is 4410

----------
test: Pharmacokinetics of capsules in male SD rats; details: male, SD, rat, plasma, oral, 2 mg/kg, Concentration (plasma), Mean, 6 h, capsule, mean of two male SD rats
endpoint.label: concentration at 6 h (ng/mL)
Just the number in ng/mL, nothing appended.

The recorded concentration at 6 h for Nc1ncn([C@H]2C[C@H](O)[C@@H](CO)S2)c(=O)n1 [SM, 5-Aza-4′-thio-2′-deoxycytidine] is 272

----------
experiment: in vivo; settings: male, SD, rat, 2 mg/kg, Concentration (plasma), individual rat
endpoint.label: concentration at 2 h (ng/mL)
Just the number in ng/mL, nothing appended.

The recorded concentration at 2 h for Nc1ncn([C@H]2C[C@H](O)[C@@H](CO)S2)c(=O)n1 [Form F, 5-Aza-4′-thio-2′-deoxycytidine] is 746

----------
test: Thermodynamic solubility, shake-flask method; assay type: physicochemical; conditions: organic solvent or mixture, thermodynamic from solid; Anisole; RT, 24 hours
endpoint.label: solubility at 24 h

The recorded solubility at 24 h for Nc1ncn([C@H]2C[C@H](O)[C@@H](CO)S2)c(=O)n1 [aza-T-dCyd, 5-Aza-4′-thio-2′-deoxycytidine] is < 100 µg/mL

----------
assay: Thermodynamic solubility, shake-flask method; assay type: physicochemical; conditions: organic solvent or mixture, thermodynamic from solid; Ethyl formate; RT, 24 hours
endpoint.label: solubility at 24 h

The recorded solubility at 24 h for Nc1ncn([C@H]2C[C@H](O)[C@@H](CO)S2)c(=O)n1 is < 100 µg/mL

----------
assay: Thermodynamic solubility, shake-flask method; format: physicochemical; details: organic solvent or mixture, thermodynamic from solid; 2-butanol; RT, 24 hours
endpoint.label: solubility at 24 h (mg/mL)
Just the number in mg/mL, nothing appended.

The recorded solubility at 24 h for Nc1ncn([C@H]2C[C@H](O)[C@@H](CO)S2)c(=O)n1 is 0.3

----------
experiment: Pharmacokinetics of capsules in male SD rats; settings: male, SD, rat, plasma, po, 2 mg/kg, AUClast, individual rat, capsule, male SD rat
endpoint.label: AUC(0-t) (ng·h/mL)
Just the number in ng·h/mL, nothing appended.

The recorded AUC(0-t) for Nc1ncn([C@H]2C[C@H](O)[C@@H](CO)S2)c(=O)n1 is 4060

----------
test: Thermodynamic solubility, shake-flask method; assay type: physicochemical; details: organic solvent or mixture, thermodynamic from solid; 2-methyltetrahydrofuran; RT, 24 hours
endpoint.label: solubility at 24 h (µg/mL)
Just the number in µg/mL, nothing appended.

The recorded solubility at 24 h for Nc1ncn([C@H]2C[C@H](O)[C@@H](CO)S2)c(=O)n1 [aza-T-dCyd, 5-Aza-4′-thio-2′-deoxycytidine] is 100

----------
assay: in vivo; conditions: male, SD, rat, 2 mg/kg, Concentration (plasma), Mean
endpoint.label: concentration at 2 h
Hi, when you answer, please include the unit after the number. Thanks!

The recorded concentration at 2 h for Nc1ncn([C@H]2C[C@H](O)[C@@H](CO)S2)c(=O)n1 [Form F, 5-Aza-4′-thio-2′-deoxycytidine] is 755 ng/mL
